- System tested: UniProt:P05067
- Sequence (P05067 672-713): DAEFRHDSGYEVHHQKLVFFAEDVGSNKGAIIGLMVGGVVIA
- Assay remarks: Th-T (thioflavin-T) assay of Aβ42 aggregation
- Type: biochemical
- Settings: reading M110; compound at 50 (head suffix _50)
Recorded endpoint: Th-T fluorescence, mean of three wells (Fig. 7a)

{"Molecule": "C=C1CC[C@@H]2[C@](C)(CC[C@H]3O[C@H](C=C(C)C)C[C@@]23C)[C@@H]1Cc1c(OC)oc(CO)c(C)c1=O [Compound 20]", "System tested": "UniProt:P05067", "Reported result": 2.1005}
{"Molecule": "C=C1CC[C@@H]2[C@](C)(CC[C@H]3O[C@H](C=C(C)C)C[C@@]23C)[C@@H]1Cc1c(OC)oc(CO)c(C(=O)OC)c1=O [Compound 21]", "System tested": "UniProt:P05067", "Reported result": 0.4823}
{"Molecule": "C=C1CCC2C(C)(CCC=C(C)C)C(O)CCC2(C)C1Cc1c(OC)oc(C)c(C(=O)OC)c1=O (centres unmarked) [Compound 14]", "System tested": "UniProt:P05067", "Reported result": 1.198}
{"Molecule": "C=C1CCC2C(C)(CCC=C(C)C)C(O)CCC2(C)C1Cc1c(OC)oc(CO)c(C)c1=O (centres unmarked) [Compound 12]", "System tested": "UniProt:P05067", "Reported result": 1.437}
{"Molecule": "C=C1CCC2C(C)(CCC=C(C)C)C(O)CCC2(C)C1Cc1c(OC)oc(CO)c(C(=O)OC)c1=O (centres unmarked) [Compound 13]", "System tested": "UniProt:P05067", "Reported result": 0.4785}
